MIC: recorded values
- Tested on: Pseudomonas aeruginosa ATCC 27853
- assay_overview: Minimum Inhibitory Concentration (MIC) in LB media
- Format: cell-based
- particulars: Pseudomonas aeruginosa, ATCC27853

[
  {
    "compound": "CN1C(=O)CNc2ccc(OCCNC[C@@H]3CN(c4cnc5c(n4)NC(=O)CS5)C(=O)O3)nc21",
    "MIC / µg/mL": 1
  },
  {
    "compound": "[2H]C([2H])([2H])N1C(=O)CNc2ccc(OCCNCC3CN(c4cnc5c(n4)NC(=O)CS5)C(=O)O3)nc21 (stereo in doubt)",
    "MIC / µg/mL": 1
  },
  {
    "compound": "Cn1c(=O)cnc2ccc(OCCNC[C@H]3CN(c4cnc5c(n4)NC(=O)CS5)C(=O)O3)nc21 [Compound 1, reference compound]",
    "MIC / µg/mL": 0.5
  }
]
